tested on: MHCC97-H cells; assay: MTT assay, MHCC97-H cells; format: cell-based; settings: Homo sapiens, MHCC97H, read-out: IC50 values of Sorafenib on MHCC97-H cells, Control group
assay.metric: IC50 (nM)
All answers are understood in nM, so give the number only.

Prompt: Look up IC50: CNC(=O)c1cc(Oc2ccc(NC(=O)Nc3ccc(Cl)c(C(F)(F)F)c3)cc2)ccn1
Completion: 1020

* * *

system: MHCC97-H cells; assay: MTT assay, MHCC97-H cells; assay type: cell-based; details: Homo sapiens, MHCC97H, read-out: IC50 values of Sorafenib on MHCC97-H cells, DHFR overexpression
assay.metric: pIC50
Quick note: pIC50 means taking -log10 of the concentration in moles per liter.

Prompt: GET /values?readout=pIC50&item= CNC(=O)c1cc(Oc2ccc(NC(=O)Nc3ccc(Cl)c(C(F)(F)F)c3)cc2)ccn1 [Sorafenib, sorafenib]
Completion: 5.27

Taken from paper PMC11589030.
